molecular target: human PAH with the R408W mutation (Homo sapiens, UniProt P00439, R408W); construct: expressed in transfected cells; assay: Cell Based Phenylalanine Flux Assay; details: A375 cells expressing human R408W PAH; 24 hrs with compound; 13C-Tyrosine by LC-MS; average where tested multiple times; read-out: AC50
Sequence (P00439 whole entry R408W): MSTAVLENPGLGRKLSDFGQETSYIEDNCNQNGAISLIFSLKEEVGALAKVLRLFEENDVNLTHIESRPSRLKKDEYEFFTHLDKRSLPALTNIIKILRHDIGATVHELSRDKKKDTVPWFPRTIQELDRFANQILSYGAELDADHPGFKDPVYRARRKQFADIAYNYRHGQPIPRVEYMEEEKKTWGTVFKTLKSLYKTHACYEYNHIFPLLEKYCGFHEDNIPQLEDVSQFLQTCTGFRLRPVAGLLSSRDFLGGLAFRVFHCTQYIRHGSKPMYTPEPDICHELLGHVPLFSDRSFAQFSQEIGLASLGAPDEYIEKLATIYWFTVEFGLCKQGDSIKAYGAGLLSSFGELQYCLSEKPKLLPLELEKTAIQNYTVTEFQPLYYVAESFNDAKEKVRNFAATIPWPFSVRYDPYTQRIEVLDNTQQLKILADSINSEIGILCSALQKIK

# compound, AC50
data = [
    ("CC(C)(O)c1cc(C(=O)N2CCc3[nH]cnc3C2c2nc3c(F)cccc3s2)ns1 (centres unmarked)", "> 5 µM"),
    ("O=C(c1cnco1)N1CCc2[nH]cnc2C1c1nc2ccc(F)cc2s1 (centres unmarked)", "1 to 5 µM"),
    ("O=C(c1cnn2ccccc12)N1CCc2[nH]cnc2[C@H]1c1nc2ccc(Cl)cc2s1 (single isomer, unassigned)", "1 to 5 µM"),
    ("O=C(c1nc2ccccc2s1)N1CCc2[nH]cnc2C1c1nc2cc(F)ccc2s1 (centres unmarked)", "> 5 µM"),
    ("Cc1ncc(C(=O)N2CCc3[nH]cnc3C2c2nc3ccccc3s2)s1 (centres unmarked)", "1 to 5 µM"),
]

* * *

Measured AC50, listed per entry for reference.
biological target: human PAH with the R408W mutation (Homo sapiens, UniProt P00439, R408W); construct: expressed in transfected cells; assay: Cell Based Phenylalanine Flux Assay; conditions: A375 cells expressing human R408W PAH; 24 hrs compound incubation; 13C-Tyrosine by LC-MS; average where tested multiple times; read-out: AC50

# mol-smiles, AC50
measured = [
    ("COCc1ncc(C(=O)N2CCc3[nH]cnc3[C@H]2c2nc3ccccc3s2)s1", "0.5 to 1 µM"),
    ("CC(C)(O)c1nc(C(F)F)c(C(=O)N2CCc3[nH]cnc3[C@@H]2c2nc3ccccc3s2)o1", "1 to 5 µM"),
    ("O=C(CCC1CC1)N1CCc2[nH]cnc2[C@@H]1c1nc2ccccc2s1", "1 to 5 µM"),
    ("O=C(CCc1nccs1)N1CCc2[nH]cnc2[C@H]1c1nc2ccccc2s1", "0.5 to 1 µM"),
    ("CC(C)(O)c1nc(C(F)(F)F)c(C(=O)N2CCCc3[nH]cnc3[C@H]2c2nc3ccccc3s2)o1", "1 to 5 µM"),
    ("O=C(c1cnn2cc(-c3ccccn3)ccc12)N1CCc2[nH]cnc2[C@@H]1c1nc2ccccc2s1", "> 5 µM"),
    ("CC(C)n1ncc(C(=O)N2CCc3[nH]cnc3[C@H]2c2nc3c(F)cccc3s2)c1Cl", "0.5 to 1 µM"),
    ("O=C(c1nnc(NC2CC2)o1)N1CCc2[nH]cnc2[C@@H]1c1nc2ccccc2s1", "1 to 5 µM"),
    ("O=C(c1nnc(N2CCOCC2)o1)N1CCc2[nH]cnc2[C@@H]1c1nc2ccccc2s1", "1 to 5 µM"),
    ("CN(C)CCn1nccc1C(=O)N1CCc2[nH]cnc2[C@H]1c1nc2c(F)cccc2s1", "0.5 to 1 µM"),
    ("O=C(c1oc(N2CCOCC2)nc1Br)N1CCc2[nH]cnc2[C@@H]1c1nc2c(F)cccc2s1", "1 to 5 µM"),
    ("C[C@@H]1CN(C(=O)c2ocnc2C2CC2)[C@H](c2nc3c(F)cccc3s2)c2nc[nH]c21", "0.5 to 1 µM"),
    ("CC(C)n1ncc(C(=O)N2CCc3[nH]cnc3[C@@H]2c2nc3c(F)cccc3s2)c1C(F)F", "1 to 5 µM"),
    ("CN(C)c1nnc(C(=O)N2CCc3[nH]cnc3[C@H]2c2nc3ccccc3s2)o1", "< 0.5 µM"),
    ("Cn1cc(-c2ncc(C(=O)N3CCc4[nH]cnc4[C@@H]3c3nc4ccccc4s3)s2)cn1", "1 to 5 µM"),
    ("O=C(CCc1nc(Cl)cs1)N1CCc2[nH]cnc2[C@@H]1c1nc2ccccc2s1", "> 5 µM"),
    ("Cc1nc(C)c(C(=O)N2CCc3[nH]cnc3[C@@H]2c2nc3ccccc3s2)o1", "> 5 µM"),
    ("CN(C)CCc1nc(C(F)(F)F)c(C(=O)N2CCc3[nH]cnc3[C@H]2c2nc3ccccc3s2)o1", "< 0.5 µM"),
    ("O=C(c1cnn2ccc(Br)cc12)N1CCc2[nH]cnc2[C@@H]1c1nc2ccccc2s1", "1 to 5 µM"),
    ("O=C(c1ocnc1-c1ccccc1)N1CCc2[nH]cnc2[C@H]1c1nc2c(F)cccc2s1", "0.5 to 1 µM"),
    ("Cc1nc(C)c(C(=O)N2CCc3[nH]cnc3[C@@H]2c2nc3c(F)cccc3s2)o1", "> 5 µM"),
    ("O=C(c1nnc(-c2ccc(F)c(F)c2)o1)N1CCc2[nH]cnc2[C@@H]1c1nc2ccccc2s1", "1 to 5 µM"),
    ("COc1ccn2ncc(C(=O)N3CCc4[nH]cnc4[C@H]3c3nc4ccccc4s3)c2c1", "< 0.5 µM"),
    ("Cn1cc(-c2nnc(C(=O)N3CCc4[nH]cnc4[C@H]3c3nc4ccccc4s3)o2)cn1", "1 to 5 µM"),
    ("O=C(c1cnc(-c2ccccn2)s1)N1CCc2[nH]cnc2[C@@H]1c1nc2ccccc2s1", "1 to 5 µM"),
    ("O=C(c1ocnc1C1CC1)N1CCc2[nH]cnc2[C@@H]1c1nc2c(F)cccc2s1", "1 to 5 µM"),
    ("Cc1nc(C(C)(C)O)oc1C(=O)N1CCc2[nH]cnc2[C@@H]1c1nc2ccccc2s1", "> 5 µM"),
    ("CC(C)n1cc(-c2ncc(C(=O)N3CCc4[nH]cnc4[C@@H]3c3nc4ccccc4s3)o2)cn1", "1 to 5 µM"),
    ("O=C(c1cnn2ccc(Cl)cc12)N1CCc2[nH]cnc2[C@@H]1c1nc2c(F)cccc2s1", "1 to 5 µM"),
    ("Cc1nc(C(C)(C)O)oc1C(=O)N1CCc2[nH]cnc2[C@H]1c1nc2c(C(F)(F)F)cccc2s1", "0.5 to 1 µM"),
    ("CN(C)c1nnc(C(=O)N2CCc3[nH]cnc3[C@@H]2c2nc3ccccc3s2)o1", "1 to 5 µM"),
]
